Protein target, amino acids: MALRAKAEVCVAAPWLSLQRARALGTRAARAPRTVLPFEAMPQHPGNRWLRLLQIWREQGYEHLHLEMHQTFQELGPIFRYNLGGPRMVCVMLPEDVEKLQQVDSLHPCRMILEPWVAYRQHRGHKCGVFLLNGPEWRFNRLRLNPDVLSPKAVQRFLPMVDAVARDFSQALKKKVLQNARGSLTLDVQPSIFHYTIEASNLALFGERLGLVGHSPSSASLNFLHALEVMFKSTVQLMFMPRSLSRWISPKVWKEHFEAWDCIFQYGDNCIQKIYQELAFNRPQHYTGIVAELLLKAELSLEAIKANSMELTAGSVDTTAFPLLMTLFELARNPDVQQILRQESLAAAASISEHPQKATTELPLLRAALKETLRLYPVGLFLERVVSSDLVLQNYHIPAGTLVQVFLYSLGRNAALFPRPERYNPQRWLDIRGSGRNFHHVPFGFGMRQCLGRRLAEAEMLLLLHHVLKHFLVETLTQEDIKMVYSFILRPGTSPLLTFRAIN
pIC50: −log10 of the molar value.
Classify as follows. Reported pIC50 greater than or equal to 8: Condition met. Reported pIC50 below: Condition not met.

Solved cases (4 shown):
- COMPOUND: "COC1CCc2cc(-c3cccnc3)ccc2C1 (stereo unspecified)"
  CLASS LABEL: "Condition met"
- COMPOUND: "CN1C(=O)CCc2cc(-c3cccnc3)ccc21"
  CLASS LABEL: "Condition met"
- COMPOUND: "S=C1CCc2cc(-c3cccnc3)ccc2N1"
  CLASS LABEL: "Condition met"
- COMPOUND: "CN1CCOc2cc(-c3cccnc3)ccc21"
  CLASS LABEL: "Condition not met"

Consider now this further compound.
Exercise: Check if pIC50 >= 8 (inclusive). Item: CN1C(=O)CCc2cc(-c3cncc4ccccc34)ccc21
Key: Condition met

---

ASSAY SYSTEM: Cytochrome P450 2D6 (Homo sapiens, UniProt P10635)
Sequence (P10635 whole entry): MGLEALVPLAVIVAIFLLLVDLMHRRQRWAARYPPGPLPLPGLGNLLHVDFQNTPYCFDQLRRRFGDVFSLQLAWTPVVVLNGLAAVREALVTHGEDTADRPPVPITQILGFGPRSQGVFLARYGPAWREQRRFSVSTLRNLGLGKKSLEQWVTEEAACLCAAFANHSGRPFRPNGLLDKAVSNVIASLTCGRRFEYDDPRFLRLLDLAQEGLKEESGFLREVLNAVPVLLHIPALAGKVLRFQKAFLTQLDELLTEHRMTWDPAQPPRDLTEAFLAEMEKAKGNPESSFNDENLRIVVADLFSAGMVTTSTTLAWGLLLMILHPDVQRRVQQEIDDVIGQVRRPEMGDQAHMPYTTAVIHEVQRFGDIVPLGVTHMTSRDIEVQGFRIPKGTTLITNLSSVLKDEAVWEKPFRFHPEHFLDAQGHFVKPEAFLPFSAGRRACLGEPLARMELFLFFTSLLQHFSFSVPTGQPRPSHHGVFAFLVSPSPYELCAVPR
MEASUREMENT PROTOCOL: Inhibition of human recombinant CYP2D6 expressed in baculovirus-infected insect microsomes
Assay type: ADME, Microsome
RECORDED CONDITIONS: read-out: IC50
Known pIC50 of a selection of molecules
Keep it numeric: pIC50 is minus log10 of the concentration in mol/L.

- SMILES REPRESENTATION: "O=C1CCc2cc(-c3cccnc3)ccc2C1"
  NUMERIC RESULT: 3.77

Attention now turns to another entry.
Exercise: Query: pIC50; subject: O=C1CCc2cc(-c3cccnc3)ccc2N1
Key: 3.77

---

ASSAY SYSTEM: Cytochrome P450 1A2 (Homo sapiens)
Sequence (P05177 whole entry): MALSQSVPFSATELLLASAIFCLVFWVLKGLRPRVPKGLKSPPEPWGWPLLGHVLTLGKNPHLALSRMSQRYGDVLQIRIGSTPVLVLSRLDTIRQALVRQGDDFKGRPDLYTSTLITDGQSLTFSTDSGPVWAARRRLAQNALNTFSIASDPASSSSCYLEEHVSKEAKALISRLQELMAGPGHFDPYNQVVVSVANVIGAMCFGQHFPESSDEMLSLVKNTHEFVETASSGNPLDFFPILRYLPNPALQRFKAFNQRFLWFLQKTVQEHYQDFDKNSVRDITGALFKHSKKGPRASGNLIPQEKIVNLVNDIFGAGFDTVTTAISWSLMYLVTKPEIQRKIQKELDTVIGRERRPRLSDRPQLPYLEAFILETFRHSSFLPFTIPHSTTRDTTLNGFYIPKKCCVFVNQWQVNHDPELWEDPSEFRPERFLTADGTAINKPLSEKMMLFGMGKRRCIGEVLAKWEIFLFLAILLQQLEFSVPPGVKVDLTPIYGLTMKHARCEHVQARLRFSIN
ASSAY READOUT: IC50 (µM)
Enter your answer as a number in µM; do not include the unit.

- MOLECULE: "COc1cncc(-c2ccc3c(c2)CCC(=O)C3)c1"
  UNIT TEXT: "µM"
  IC50: 1.56
- MOLECULE: "CN1C(=O)CCc2cc(-c3cccnc3)ccc21"
  UNIT TEXT: "µM"
  IC50: 1.79
- MOLECULE: "CCN1C(=O)CCc2cc(-c3cccnc3)ccc21"
  UNIT TEXT: "µM"
  IC50: 3.48
- MOLECULE: "N#CC1CCc2cc(-c3cccnc3)ccc2C1 (configuration not stated)"
  UNIT TEXT: "µM"
  IC50: 0.66
- MOLECULE: "O=C1CCc2cc(-c3cccnc3)cc(Cl)c2N1"
  UNIT TEXT: "µM"
  IC50: 30.6

Then this molecule:
Exercise: Using the record for O=C1CCc2cc(-c3cccnc3)ccc2C1 , report its IC50.
Key: 1.55
